Target: c-Kit(V654A) (Homo sapiens, UniProt P10721, V654A)
Construct: amino acids 544-end containing the V654A mutation; GST (N)
Sequence (P10721 544-976 V654A): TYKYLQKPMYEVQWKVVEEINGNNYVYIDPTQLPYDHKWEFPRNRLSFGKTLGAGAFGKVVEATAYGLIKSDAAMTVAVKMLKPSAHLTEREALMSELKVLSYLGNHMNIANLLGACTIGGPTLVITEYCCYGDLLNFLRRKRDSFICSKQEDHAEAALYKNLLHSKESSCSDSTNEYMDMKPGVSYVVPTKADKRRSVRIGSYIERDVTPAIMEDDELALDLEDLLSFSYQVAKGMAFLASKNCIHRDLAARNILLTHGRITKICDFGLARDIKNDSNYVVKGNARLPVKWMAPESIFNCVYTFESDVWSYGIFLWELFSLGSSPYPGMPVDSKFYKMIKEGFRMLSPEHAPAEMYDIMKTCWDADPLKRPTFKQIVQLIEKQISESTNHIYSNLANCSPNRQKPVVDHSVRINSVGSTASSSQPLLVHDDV
Test: c-Kit(V654A) assay
Conditions: recombinant human c-Kit aa 544-end, 200 μM ATP, 1.4E-06 means 1.4×10^−6, read-out: Inhibition (IC50) of c-KIT (V654A)
Procedure: c-Kit(V654A) (N-terminal GST-tagged, recombinant human c-Kit, amino acids 544-end containing the V654A mutation) is incubated with 8 mM MOPS pH 7.0, 0.2 mM EDTA, 250 μM GGMEDIYEFMGGKKK, 10 mM MgAcetate and [gamma-33P-ATP] (specific activity approx. 500 cpm/pmol, concentration 200 μM). The reaction is initiated by the addition of the MgATP mix. After incubation for 40 minutes at room temperature, the reaction is stopped by the addition of 3% phosphoric acid solution. […]
readout-type: pIC50
Friendly reminder that pIC50 comes from taking -log10 of the concentration in mol/L.

compound	pIC50
CN(C)CCc1ccc(-n2cc(-c3cc4cc(F)c(F)cc4[nH]c3=O)nn2)cc1 [A115]	6.74
CN1CCN(C(=O)Cn2ccc3cc(-n4cc(-c5cc6cc(F)ccc6[nH]c5=O)nn4)ccc32)CC1 [A178]	8.41
CN1CCN(c2ccc(-n3cc(-c4cc5ccccc5[nH]c4=O)nn3)cc2)C(=O)C1 [A68]	7.55
O=C(c1ccc(-n2cc(-c3cc4cc(F)ccc4[nH]c3=O)nn2)cc1)N1CCN(C2COC2)CC1 [A230]	7.31
O=C(c1ccc(-n2cc(-c3cc4cc(F)ccc4[nH]c3=O)nn2)cc1)N1CC[C@@H](F)C1 [A269]	7.51
CCN(CC)CCNC(=O)c1ccc(-n2cc(-c3cc4cc(F)c(Cl)cc4[nH]c3=O)nn2)cc1 [A188]	7.59
O=C(c1ccc(-n2cc(-c3cc4ccc(Cl)cc4[nH]c3=O)nn2)cc1)N1CCOCC1 [A82]	7.85
COc1cccc(-n2cc(-c3cc4ccccc4[nH]c3=O)nn2)c1 [A24]	6.96

Field: next compound
Ask: Write pIC50 of COCCOC[C@@H]1CCN(C(=O)c2ccc(-n3cc(-c4cc5cc(F)ccc5[nH]c4=O)nn3)cc2)C1 [A210] ; system used: c-Kit(V654A) (Homo sapiens, UniProt P10721, V654A)
Reply: 7.34

====

biological target: c-Kit(V654A) (Homo sapiens, UniProt P10721, V654A); construct: amino acids 544-end containing the V654A mutation; GST (N); assay: c-Kit(V654A) assay; settings: recombinant human c-Kit aa 544-end, 200 μM ATP, 1.4E-06 means 1.4×10^−6, read-out: Inhibition (IC50) of c-KIT (V654A)
readout-type: IC50 (µM)
Just the number in µM, nothing appended.

Known results for compounds:
compound	units-text	IC50
COC[C@@H]1CCN(C(=O)c2ccc(-n3cc(-c4cc5cc(F)ccc5[nH]c4=O)nn3)cc2)C1 [A199]	µM	0.016
O=c1[nH]c2ncccc2cc1-c1cn(-c2ccc(CO)cc2)nn1 [A7]	µM	0.49
CN1Cc2cc(-n3cc(-c4cc5cc(F)ccc5[nH]c4=O)nn3)ccc2C1=O [A354]	µM	3.1
O=C(NCCN1CCOCC1)c1ccc(-n2cc(-c3cc4ccccc4[nH]c3=O)nn2)cc1 [A21]	µM	0.079
O=C(c1cccc(-n2cc(-c3cc4ccccc4[nH]c3=O)nn2)c1)N1CCNCC1 [A78]	µM	0.017
CO[C@H]1CCN(C(=O)c2ccc(-n3cc(-c4cc5cc(F)ccc5[nH]c4=O)cn3)cc2)C1 [A297]	µM	0.066
COCCCN1CCN(C(=O)c2ccc(-n3cc(-c4cc5c(F)cccc5[nH]c4=O)nn3)cc2)CC1 [A87]	µM	0.025
O=C(c1ccc(-n2cc(-c3cc4cnccc4[nH]c3=O)nn2)cc1)N1CCOCC1 [A41]	µM	0.24

Ask: Note IC50 for the compound shown: CN1CCC(Oc2ccc(-n3cc(-c4cc5cc(F)ccc5[nH]c4=O)nn3)cc2)CC1 [A375]
Reply: 0.0095

====

target: PDGFRalpha(V561D) (Homo sapiens, UniProt P16234, V561D); construct: recombinant human PDGFRalpha, amino acids 550end containing the V561 D mutation; 6His (N); experiment: PDGFRalpha(V561D) assay; details: recombinant human PDGFRalpha aa 550-end, 200 μM ATP, 1.4E-06 means 1.4×10^−6, read-out: Inhibition (IC50) of PDGFRα (V561D)
Sequence (P16234 550-1089 V561D): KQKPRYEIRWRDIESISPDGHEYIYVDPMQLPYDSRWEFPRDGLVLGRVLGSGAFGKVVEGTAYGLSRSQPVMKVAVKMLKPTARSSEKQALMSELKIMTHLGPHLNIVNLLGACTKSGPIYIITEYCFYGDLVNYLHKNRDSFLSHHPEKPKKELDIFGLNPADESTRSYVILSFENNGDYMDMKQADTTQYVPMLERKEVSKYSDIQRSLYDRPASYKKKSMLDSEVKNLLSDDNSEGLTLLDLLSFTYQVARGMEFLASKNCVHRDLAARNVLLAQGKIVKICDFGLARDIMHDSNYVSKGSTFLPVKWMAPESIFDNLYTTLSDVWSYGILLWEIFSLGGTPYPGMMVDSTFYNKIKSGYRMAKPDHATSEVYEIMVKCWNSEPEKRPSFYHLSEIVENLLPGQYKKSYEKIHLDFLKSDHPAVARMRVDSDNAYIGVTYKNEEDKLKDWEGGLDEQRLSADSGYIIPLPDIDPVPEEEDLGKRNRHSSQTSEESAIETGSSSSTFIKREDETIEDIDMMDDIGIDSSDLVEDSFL
Structures can show the parent of a compound that is named as a salt.
readout-type: pIC50
Please treat pIC50 as minus the base-10 logarithm of the molar concentration.

compound	pIC50
CC(=O)N1C[C@@H]2[C@H](C1)[C@H]2NC(=O)c1ccc(-n2cc(-c3cc4cc(F)ccc4[nH]c3=O)nn2)cc1 [A240]	6.60

Ask: Consider the compound CNc1ccc(-n2cc(-c3cc4cc(F)ccc4[nH]c3=O)nn2)cc1 [A342] . State its measured pIC50.
Reply: 7.44

Ask: Fill in pIC50 for record CO[C@@H]1C[C@H](CO)N(C(=O)c2ccc(-n3cc(-c4cc5cc(F)ccc5[nH]c4=O)nn3)cc2)C1 [A244]
Reply: 7.89

Ask: Specify pIC50 for O=C(c1ccc(-n2cc(-c3cc4ccc(F)cc4[nH]c3=O)nn2)cc1)N1CCOCC1 [A83] and stop.
Reply: 8.52

Ask: Provide measured pIC50 value, entry: O=C(c1ccc(-n2cc(-c3cc4c(F)cc(F)cc4[nH]c3=O)nn2)cc1)N1CCC(N2CCCC2)C1 (centres unmarked) [A105]
Reply: 6.47

Ask: Indicate its recorded pIC50; the compound in question is CN1CCC(COc2ccc(-n3cc(-c4cc5ccccc5[nH]c4=O)nn3)cc2)CC1 [A60]
Reply: 7.48

Ask: Quote pIC50 reported for O=C(c1ccc(-n2cc(-c3cc4cc(F)ccc4[nH]c3=O)nn2)cc1)N1CCN[C@@H](CO)C1 [A314, hydrochloride] please.
Reply: 6.74

Ask: Item Cc1cc(C(=O)N2CCOCC2)ccc1-n1cc(-c2cc3ccccc3[nH]c2=O)nn1 [A35] : provide pIC50
Reply: 7.31

Ask: Using the record for O=C(c1ccc(-n2cc(-c3cc4cc(F)ccc4[nH]c3=O)nn2)cc1)N1CCCC12COC2 [A234] , state its measured pIC50.
Reply: 6.13

Ask: Give me measured pIC50, please, for this compound: O=C(c1ccc(-n2cc(-c3cc4cnccc4[nH]c3=O)nn2)cc1)N1CCOCC1 [A41]
Reply: 7.36

Ask: Specify reported pIC50 for the compound shown: O=C(c1ccc(-n2cc(-c3cc4cc(F)ccc4[nH]c3=O)nn2)cc1)N1CCC(N2CCC(O)CC2)C1 (centres unmarked) [A208]
Reply: 6.74

Ask: Indicate its recorded pIC50; the compound in question is N[C@H]1CCCN(C(=O)c2ccc(-n3cc(-c4cc5cc(F)c(F)cc5[nH]c4=O)nn3)cc2)C1 [A310, hydrochloride]
Reply: 7.07

Ask: For O=C(COc1ccc(-n2cc(-c3cc4cc(F)ccc4[nH]c3=O)nn2)cc1)N1CCNCC1 [A141] , write its pIC50.
Reply: 8.55

Ask: Tell me measured pIC50 for O=C(c1ccc(-n2cc(-c3cc4c(F)cc(F)cc4[nH]c3=O)nn2)cc1)N1CCOCC1 [A90] please.
Reply: 7.54

Ask: Give me measured pIC50, please, for this compound: O=c1[nH]c2ccccc2cc1-c1cn(-c2ccc(F)cc2)nn1 [A12]
Reply: 7.20

Ask: Supply reported pIC50 belonging to this compound: CN(C)C(=O)c1ccc(-n2cc(-c3cc4cccnc4[nH]c3=O)nn2)cc1 [A3]
Reply: 7.80

Ask: # return recorded pIC50 for entry CC(=O)N1CCN(CCOc2ccc(-n3cc(-c4cc5cc(F)ccc5[nH]c4=O)nn3)cc2)CC1 [A100a]
Reply: 7.27

====

Here, each record is paired with measured pIC50 data.
molecular target: c-Kit(V654A) (Homo sapiens, UniProt P10721, V654A); construct: amino acids 544-end containing the V654A mutation; GST (N); assay: c-Kit(V654A) assay; conditions: recombinant human c-Kit aa 544-end, 200 μM ATP, 1.4E-06 means 1.4×10^−6, read-out: Inhibition (IC50) of c-KIT (V654A)
// pIC50 is dimensionless: -log10 of concentration (M)

Below are worked cases with known answers.
compound	measured-number
COc1cc(-n2cc(-c3cc4ccccc4[nH]c3=O)nn2)cc(OC)c1OC	5.49
O=c1[nH]c2ccccc2cc1-c1cn(-c2ccc(F)cc2)nn1	7.16
CO[C@H]1CCN(C(=O)c2ccc(-n3cc(-c4cc5cc(F)c(F)cc5[nH]c4=O)nn3)cc2)C1	7.70
CN(C(=O)[C@@H]1CCCO1)c1ccc(-n2cc(-c3cc4cc(F)ccc4[nH]c3=O)nn2)cc1	8.01
CN1CCN(C(=O)c2ccc(-n3cc(-c4cc5cccnc5[nH]c4=O)nn3)cc2)CC1	7.36

Ask: Identify measured pIC50 corresponding to O=c1[nH]c2ccc(F)cc2cc1-c1cn(-c2ccc(S(=O)(=O)N3CCNCC3)cc2)nn1
Reply: 7.89

Ask: In one line, give reported pIC50 of the entry CN1CCN(c2ccc(-n3cc(-c4cc5cc(F)ccc5[nH]c4=O)nn3)cc2)CC1 .
Reply: 7.85

Ask: Look up and report measured pIC50 for this entry: O=C(c1cccc(-n2cc(-c3cc4cc(F)ccc4[nH]c3=O)nn2)c1)N1CCC(N2CCCC2)C1 (centres unmarked)
Reply: 7.36
